Where these numbers come from: PubChem BioAssay AID504333

TGT: Bromodomain adjacent to zinc finger domain protein 2B (Homo sapiens)
EXPERIMENT NOTES: qHTS Assay for Inhibitors of BAZ2B; note: nearly all actives have a fitted effect of over 60% in size
CONDITION PARAMETERS: AlphaScreen BAZ2B-H3K14Ac peptide displacement; series mostly up to 114 µM
Out of some 360,000 compounds screened, about 16,000 (4.4%) were called active. Not shown: some 9% with an inconclusive outcome. Calls come from the whole dose curve; as a rule, active = well fitted inhibition curve with a large enough effect; inconclusive = small, poorly fitted or top-dose-only effect; inactive = no such curve, though single readings can be large or run the other way. Many of the other results were omitted from the sample, so actives are more common in it than they were.
Could you please pick one outcome from this set? active, inactive

Ask: So what was the verdict on `CNc1ccc(-c2nc(-c3ccccc3C)no2)cc1[N+](=O)[O-]` in this test?
Reply: inactive
